Would you mind telling me the reported koff of each entry?
Biological target: T1, recombinant soluble human IL-6 receptor (SR344) (human, UniProt P08887 20-344, biotinylated (sites not given) where immobilized via streptavidin or used in phage ELISA)
T1 construct: also called soluble IL-6 receptor; membrane-type IL-6 receptor (when biotinylated and immobilized on the chip)
T1 sequence (looked up): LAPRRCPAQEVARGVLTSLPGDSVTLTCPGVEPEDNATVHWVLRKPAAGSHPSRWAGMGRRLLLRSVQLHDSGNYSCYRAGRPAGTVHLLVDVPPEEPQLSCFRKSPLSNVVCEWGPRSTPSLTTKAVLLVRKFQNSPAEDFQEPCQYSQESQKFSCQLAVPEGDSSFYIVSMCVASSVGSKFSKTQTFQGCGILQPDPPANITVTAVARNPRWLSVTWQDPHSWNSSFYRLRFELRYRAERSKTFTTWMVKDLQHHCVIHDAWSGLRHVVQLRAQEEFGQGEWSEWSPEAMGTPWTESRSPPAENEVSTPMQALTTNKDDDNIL
Test: SPR Biacore T100, biotinylated SR344 on streptavidin chip (model of membrane IL-6 receptor), antibody 0.5 ug/mL as analyte, bound at pH 7.4, dissociation at pH 7.4, 37 C
Answer format: number, then unit.

Use the examples below as a reference point.
CLH5/L73 (antibody, IgG1, V domains shown, expressed and purified as IgG) VH: QVQLQESGPGLVKPSETLSLTCAVSGYSISHDHAWSWVRQPPGEGLEWIGHISYSGITNYNPHLKGRVTISRDTSKNQFSLKLSSVTAADTAAYYCARFLARITAHDHWGEGTLVTVSS VL: DIQMTQSPSSLSASVGDSVTITCQASQHISSHLNWYQQKPGKAPELLIYYGSHLHSGVPSRFSGSGSGTDFTFTISSLEAEDAATYYCGQGNRLPYTFGQGTKVEIE : 0.00104 s⁻¹
humanized PM1 antibody (wild type, WT) (antibody, human IgG1, kappa, V domains shown, IgG1; also called WT-IgG1; wild type humanized anti-IL-6 receptor antibody) VH: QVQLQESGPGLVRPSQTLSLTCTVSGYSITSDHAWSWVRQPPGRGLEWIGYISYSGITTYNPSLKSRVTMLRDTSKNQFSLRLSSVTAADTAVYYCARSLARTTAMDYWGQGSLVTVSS VL: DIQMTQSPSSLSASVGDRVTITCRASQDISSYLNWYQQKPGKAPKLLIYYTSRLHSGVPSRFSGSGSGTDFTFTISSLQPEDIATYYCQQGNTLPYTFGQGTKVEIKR : 0.000484 s⁻¹
H3pI/L73 (antibody, IgG1, V domains shown, tested as IgG1; also called H3pI/L73-IgG1; H3pl/L73) VH: QVQLQESGPGLVKPSETLSLTCAVSGHSISHDHAHSWVRQPPGEGLEWIGYISYSGITNYNPSLKGRVTISRDTSKNQFSLKLSSVTAADTAAYYCARSLARTTAMDYWGEGTLVTVSS VL: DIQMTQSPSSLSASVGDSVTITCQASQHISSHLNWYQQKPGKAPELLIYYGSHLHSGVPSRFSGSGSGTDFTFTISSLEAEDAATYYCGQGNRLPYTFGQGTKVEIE : 0.000344 s⁻¹

Please look at the following binder next.
Inquiry: Can you look up the measured koff of H170/L82 (antibody, IgG1, V domains shown, expressed and purified as IgG (IgG1); also called H170/L82-IgG1) VH: QVQLQESGPGLVKPSETLSLTCAVSGHSISHHHAHSWVRQPPGEGLEWIGYISYSGITHYNPHLKGRVTISRDTSKNQFSLKLSSVTAADTAAYYCARVLARITAMDHWGEGTLVTVSS VL: DIQMTQSPSSLSASVGDSVTITCQASQDISSHLNWYQQKPGKAPELLIYYGSHLHSGVPSRFSGSGSGTDFTFTISSLEAEDAATYYCGQGNRLPYTFGQGTKVEIE for me?
Reply text: 0.00077 s⁻¹
